B1: TRIM15 (parent)
chain: QSSGKILLCPLCQEEEQAETPMAP

# Variants of: B1
# experimental.details: protein stability index of a GFP-peptide fusion (GPS, HEK-293T) (PSI 1-6); higher = more stable;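 note: lentivirally expressed fusions sorted by FACS into six bins by GFP to DsRed ratio, PSI derived from sequencing read proportions per bin multiplied by bin number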
# details: c terminus: a fixed tail appended
reported.property: protein stability index
Write the number on its own, no unit after it.

Request: Entry A23S : reported protein stability index = ?
Result: 3.86

Request: Entry E15R : reported protein stability index = ?
Result: 1.81

Request: Entry L7S : reported protein stability index = ?
Result: 3.39

Request: Entry C12M : reported protein stability index = ?
Result: 4.86

Request: Entry C12E : reported protein stability index = ?
Result: 5.46

Request: Entry C12K : reported protein stability index = ?
Result: 4.93

Request: Entry G4Y : reported protein stability index = ?
Result: 3.4

Request: Entry Q13W : reported protein stability index = ?
Result: 2.35

Request: Entry K5R : reported protein stability index = ?
Result: 3.22

Request: Entry Q17G : reported protein stability index = ?
Result: 3.74

Request: Entry L8N : reported protein stability index = ?
Result: 4.45

Request: Entry E15H : reported protein stability index = ?
Result: 2.98

Request: Entry Q17H : reported protein stability index = ?
Result: 3.05

Request: Entry C12F : reported protein stability index = ?
Result: 4.81

Request: Entry S3T : reported protein stability index = ?
Result: 3.58

Request: Entry G4I : reported protein stability index = ?
Result: 3.34

Request: Entry C12V : reported protein stability index = ?
Result: 4.62

Request: Entry P10H : reported protein stability index = ?
Result: 3.42

Request: Entry Q1R : reported protein stability index = ?
Result: 3.35

Request: Entry S2H : reported protein stability index = ?
Result: 3.32

Request: Entry E19R : reported protein stability index = ?
Result: 2.99

Request: Entry Q17F : reported protein stability index = ?
Result: 2.55

Request: Entry Q17Y : reported protein stability index = ?
Result: 2.87

Request: Entry E19T : reported protein stability index = ?
Result: 3.09

Request: Entry P24K : reported protein stability index = ?
Result: 3.17

Request: Entry Q13T : reported protein stability index = ?
Result: 2.69

Request: Entry E16D : reported protein stability index = ?
Result: 3.31

Request: Entry Q13Y : reported protein stability index = ?
Result: 3.31

Request: Entry K5T : reported protein stability index = ?
Result: 3.06

Request: Entry E15K : reported protein stability index = ?
Result: 3.05

Request: Entry Q1V : reported protein stability index = ?
Result: 2.87

Request: Entry I6G : reported protein stability index = ?
Result: 3.53

Request: Entry P24F : reported protein stability index = ?
Result: 3.25

Request: Entry A23I : reported protein stability index = ?
Result: 2.86

Request: Entry S2F : reported protein stability index = ?
Result: 2.18

Request: Entry E14Q : reported protein stability index = ?
Result: 2.55

Request: Entry K5N : reported protein stability index = ?
Result: 3.46

Request: Entry I6A : reported protein stability index = ?
Result: 4.26

Request: Entry E15G : reported protein stability index = ?
Result: 2.9

Request: Entry A23F : reported protein stability index = ?
Result: 3.25

Request: Entry A18S : reported protein stability index = ?
Result: 3.74

Request: Entry T20L : reported protein stability index = ?
Result: 3.8

Request: Entry A23R : reported protein stability index = ?
Result: 2.6

Request: Entry I6D : reported protein stability index = ?
Result: 4.77

Request: Entry S2N : reported protein stability index = ?
Result: 2.86

Request: Entry A18T : reported protein stability index = ?
Result: 3.61
